Target: T1, human PD-1 (soluble analyte in SPR) (human, UniProt Q15116 25-170, limits assumed)
T1 construct: also called CD279; PDCD1
T1 sequence (Q15116 25-170 limits assumed): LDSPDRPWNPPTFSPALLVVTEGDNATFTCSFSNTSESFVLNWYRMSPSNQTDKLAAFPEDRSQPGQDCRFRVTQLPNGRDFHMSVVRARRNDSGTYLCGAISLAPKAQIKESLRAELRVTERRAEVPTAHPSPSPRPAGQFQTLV
Assay: SPR (ProteOn XPR36), mAb captured on anti-human IgG Fc, human PD-1 as analyte, 25 C
Procedure: Affinity measurements were performed using a ProteOn XPR36 system (BioRad). […] Approximately 5000 RU (response units) of mAbs were immobilized. The kinetic experiments were performed at 25° C. in running buffer (DPBS+0.01% P20+100 μg/mL BSA). […] The association phase was monitored for 3 minutes at 50 μL/min, then followed by 10 or 15 minutes of buffer flow (dissociation phase). […] Affinity of the antibodies to human and cyno PD-1 was measured using SPR as described in Example 1.
Catalogue of binders with associated kon
All answers are understood in M⁻¹ s⁻¹, so give the number only.

PD1B1093 (antibody, human IgG1, kappa, V domains shown, also called VH PD1H585; VL PD1L652) VH: QVQLVQSGSELKKPGASVKVSCKASGYTFTDYSMHWVRQAPGQGLEWMGWINIETGYPTYAQGFTGRFVFSLDTSVSTAYLQISSLKAEDTAVYFCARDYYGTYFYAMDYWGQGTLVTVSS VL: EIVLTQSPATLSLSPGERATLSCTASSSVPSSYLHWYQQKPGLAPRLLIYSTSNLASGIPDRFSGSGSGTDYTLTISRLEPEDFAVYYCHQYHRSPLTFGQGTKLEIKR :: 125000
PD1B1092 (antibody, human IgG1, kappa, V domains shown, also called VH PD1H587; VL PD1L651) VH: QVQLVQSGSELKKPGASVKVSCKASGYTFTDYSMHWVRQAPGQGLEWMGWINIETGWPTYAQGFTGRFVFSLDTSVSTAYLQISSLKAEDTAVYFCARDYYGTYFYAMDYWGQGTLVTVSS VL: EIVLTQSPATLSLSPGERATLSCTASSSFSSSYLHWYQQKPGLAPRLLIYSTSNLASGIPDRFSGSGSGTDYTLTISRLEPEDFAVYYCHQYHRSPLTFGQGTKLEIKR :: 140000

Q: Which kon is reported for this binder? PD1B1094 (antibody, human IgG1, kappa, V domains shown, also called VH PD1H586; VL PD1L652) VH: QVQLVQSGSELKKPGASVKVSCKASGYTFTDYSMHWVRQAPGQGLEWMGWINIETGHPTYAQGFTGRFVFSLDTSVSTAYLQISSLKAEDTAVYFCARDYYGTYFYAMDYWGQGTLVTVSS VL: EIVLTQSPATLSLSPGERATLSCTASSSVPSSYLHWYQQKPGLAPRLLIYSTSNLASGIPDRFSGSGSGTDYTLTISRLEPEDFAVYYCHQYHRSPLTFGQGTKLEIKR
Result: 105000

Q: Entry PD1B1090 (antibody, human IgG1, kappa, V domains shown, also called VH PD1H585; VL PD1L651) VH: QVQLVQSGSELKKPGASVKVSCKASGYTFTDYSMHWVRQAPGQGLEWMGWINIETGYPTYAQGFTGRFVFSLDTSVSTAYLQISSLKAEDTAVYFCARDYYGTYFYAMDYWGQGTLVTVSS VL: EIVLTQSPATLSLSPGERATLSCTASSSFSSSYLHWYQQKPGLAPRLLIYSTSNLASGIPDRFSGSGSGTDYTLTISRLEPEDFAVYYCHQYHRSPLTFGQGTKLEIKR : reported kon = ?
Result: 106000

Q: Value lookup for kon; key = PD1B1088 (antibody, human IgG1, kappa, V domains shown, also called VH PD1H405; VL PD1L651) VH: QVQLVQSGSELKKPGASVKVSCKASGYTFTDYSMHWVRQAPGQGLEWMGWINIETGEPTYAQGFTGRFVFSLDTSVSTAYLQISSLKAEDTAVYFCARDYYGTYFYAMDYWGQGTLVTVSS VL: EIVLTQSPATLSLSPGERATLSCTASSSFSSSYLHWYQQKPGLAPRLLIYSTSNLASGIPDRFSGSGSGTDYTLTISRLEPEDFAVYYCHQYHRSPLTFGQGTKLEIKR
Result: 31300

Q: Item under review: PD1B1091 (antibody, human IgG1, kappa, V domains shown, also called VH PD1H586; VL PD1L651) VH: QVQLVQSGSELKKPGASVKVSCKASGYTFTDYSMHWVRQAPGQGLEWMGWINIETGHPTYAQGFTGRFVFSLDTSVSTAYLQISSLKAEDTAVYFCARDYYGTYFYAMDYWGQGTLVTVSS VL: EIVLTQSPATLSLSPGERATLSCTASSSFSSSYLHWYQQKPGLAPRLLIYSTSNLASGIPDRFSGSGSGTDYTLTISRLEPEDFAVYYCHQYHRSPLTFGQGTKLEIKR . Reported kon?
Result: 77700

Q: Could you tell me which kon is on file for PD1B1085 (antibody, human IgG1, kappa, V domains shown, also called VH PD1H585; VL PD1L469) VH: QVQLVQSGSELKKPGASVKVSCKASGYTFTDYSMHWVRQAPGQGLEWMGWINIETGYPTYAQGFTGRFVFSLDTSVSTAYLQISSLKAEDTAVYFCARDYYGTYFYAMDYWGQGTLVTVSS VL: EIVLTQSPATLSLSPGERATLSCTASSSVSSSYLHWYQQKPGLAPRLLIYSTSNLASGIPDRFSGSGSGTDYTLTISRLEPEDFAVYYCHQYHRSPLTFGQGTKLEIKR ?
Result: 156000

Q: For PD1B1087 (antibody, human IgG1, kappa, V domains shown, also called VH PD1H587; VL PD1L469) VH: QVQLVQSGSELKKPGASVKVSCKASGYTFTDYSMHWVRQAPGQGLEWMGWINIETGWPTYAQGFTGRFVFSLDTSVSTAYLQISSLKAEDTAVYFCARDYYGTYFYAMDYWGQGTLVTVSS VL: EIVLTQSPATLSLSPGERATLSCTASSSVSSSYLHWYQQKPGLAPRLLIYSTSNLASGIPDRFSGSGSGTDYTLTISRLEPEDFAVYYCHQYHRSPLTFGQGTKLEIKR , what is its reported kon?
Result: 166000

Q: Requested read-out: kon. Entry: PD1B1095 (antibody, human IgG1, kappa, V domains shown, also called VH PD1H587; VL PD1L652) VH: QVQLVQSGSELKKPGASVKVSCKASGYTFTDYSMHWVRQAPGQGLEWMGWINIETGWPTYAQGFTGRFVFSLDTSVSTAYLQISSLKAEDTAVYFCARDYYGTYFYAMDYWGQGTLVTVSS VL: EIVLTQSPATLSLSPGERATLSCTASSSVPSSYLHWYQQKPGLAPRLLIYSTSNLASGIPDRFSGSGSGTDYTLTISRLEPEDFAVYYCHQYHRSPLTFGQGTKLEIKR
Result: 151000

Q: # kon lookup, item PD1B1086 (antibody, human IgG1, kappa, V domains shown, also called VH PD1H586; VL PD1L469) VH: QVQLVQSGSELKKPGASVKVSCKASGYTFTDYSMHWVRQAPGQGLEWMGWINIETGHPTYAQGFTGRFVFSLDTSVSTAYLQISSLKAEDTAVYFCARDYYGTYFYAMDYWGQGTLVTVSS VL: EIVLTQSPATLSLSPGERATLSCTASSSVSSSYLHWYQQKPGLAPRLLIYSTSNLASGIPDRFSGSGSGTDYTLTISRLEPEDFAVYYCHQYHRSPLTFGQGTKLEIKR
Result: 124000

Q: Tell me the measured kon of PD1B1089 (antibody, human IgG1, kappa, V domains shown, also called VH PD1H405; VL PD1L652) VH: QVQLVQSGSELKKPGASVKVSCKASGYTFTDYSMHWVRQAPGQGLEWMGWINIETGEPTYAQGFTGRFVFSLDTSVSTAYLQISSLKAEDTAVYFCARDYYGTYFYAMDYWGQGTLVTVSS VL: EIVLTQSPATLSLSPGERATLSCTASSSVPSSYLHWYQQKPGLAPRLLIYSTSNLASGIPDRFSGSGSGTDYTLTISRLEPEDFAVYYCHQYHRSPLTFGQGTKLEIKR , please.
Result: 58600
